This collection of values is drawn from the supplement of paper PMC10724198.

Can you tell me protein stability index for the items I'm about to list?
Test system: Saccharomyces cerevisiae;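 also: PSI is a weighted mean of sequencing reads over stability bins, variants kept only with over 10 reads, mCherry proximal and sfGFP distal, peptide attached via GGGS linker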
Assay: protein stability index of tFT-peptide fusion (C-terminal peptide) (PSI (0-1 scale)); higher = more stable (slower turnover)
Settings: genetic background: wild type; temperature: 30 C
One number for each entry.

Return reported protein stability index values for all items listed beneath this line.
1. DPWPPPRTRTRT
2. IVVRPAGGGTQS
3. SRAPPTSLVWGF
4. RFRSMTGVIVSE
5. VGIPKEADKGGF
6. EGEDRVEPGTQT

1. 0.682
2. 0.663
3. 0.678
4. 0.677
5. 0.704
6. 0.722

# return protein stability index for each item in the list
1. FSFPIIFFGMFL
2. LSRRFSLALFWT

0.415
0.279

Please go through the list and note protein stability index for each sequence.
1. LTLGAIRLLLRC
2. PLHRARAPHSYP
3. GLSIVGAALHSA
4. LICRFLFFVCVG
5. SLPAPPPPPPPH

1: 0.496; 2: 0.717; 3: 0.663; 4: 0.394; 5: 0.727
